Below is a list of entries, each paired with its recorded T1/2 value.
Molecular target: Dimeric Mouse Ang-2FD conjugated to human IgG1 (mouse (Mus musculus))
Sequence (chain, as listed by the source limits assumed): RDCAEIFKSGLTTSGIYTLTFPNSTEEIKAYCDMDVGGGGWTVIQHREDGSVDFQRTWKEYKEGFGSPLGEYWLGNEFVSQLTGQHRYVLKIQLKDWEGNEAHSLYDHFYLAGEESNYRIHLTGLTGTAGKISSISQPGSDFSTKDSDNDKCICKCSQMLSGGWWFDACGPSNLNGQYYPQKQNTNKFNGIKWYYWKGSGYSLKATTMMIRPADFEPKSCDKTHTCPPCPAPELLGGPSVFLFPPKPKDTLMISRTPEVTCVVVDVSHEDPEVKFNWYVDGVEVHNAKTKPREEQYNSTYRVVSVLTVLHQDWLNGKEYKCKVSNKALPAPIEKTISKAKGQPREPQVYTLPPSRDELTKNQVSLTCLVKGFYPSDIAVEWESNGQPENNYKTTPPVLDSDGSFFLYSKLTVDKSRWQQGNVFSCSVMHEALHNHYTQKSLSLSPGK
Assay: SPR, antibody captured, room temperature
Give just the numeric value; h need not be written.

- H1M724N (antibody, V domains shown) VH: QVQLVESGGGVVQPGRSLRLSCAASGFTLSNYGMHWVRQAPGKGLEWVAVIWHDGSNTYYADSVKGRFTISRDNSKNTLYLQMNSLRAEDTAVYYCTREGLDFWSGYYPNWFDPWGQGTLVTVSS VL: DIQMTQSPSSLSASVGDRVTITCRASQGIRNDLGWYQQKPGKAPKRLIYAASNLQGGVPSRFSGSGSGTEFTLTISSLQPEDFAAYYCLQHNIYPLTFGGGTKVEIK: 0.267

Okay, next one:
The measured T1/2 associated with H2M743N (antibody, V domains shown) VH: EVQLLESGGGLVQPGGSLRLSCAASGFTFRKYAMSWVRQAPGKGLEWVSVISVSGGNTYYADSVKGRFTISRDNSKNTLYLQLNSLRAEDTAVYYCAKDLTDIVLMVYVDYWGQGTLVTVSS VL: DIQMTQSPSSVSASVGDRVTITCRASQDIDRWLAWYQQKPGKAPKLLIYAASSLQSGVPSRFSGSGSGTDFTLTISTLQPEDFATYYCQQANSLPFTFGGGTKVEIK reads 3.25
